Values compiled from paper PMC6731595.

- target.under.test: human RPA70AB (A and B DNA binding domains of RPA70) (Homo sapiens)
- Construct: recombinant human RPA70AB (181-422) in a pSV281 vector; 6xHis (TEV site) (N, cleaved yes); made in house; host or cells: Escherichia coli BL21(DE3)
- Sequence (P27694 181-422): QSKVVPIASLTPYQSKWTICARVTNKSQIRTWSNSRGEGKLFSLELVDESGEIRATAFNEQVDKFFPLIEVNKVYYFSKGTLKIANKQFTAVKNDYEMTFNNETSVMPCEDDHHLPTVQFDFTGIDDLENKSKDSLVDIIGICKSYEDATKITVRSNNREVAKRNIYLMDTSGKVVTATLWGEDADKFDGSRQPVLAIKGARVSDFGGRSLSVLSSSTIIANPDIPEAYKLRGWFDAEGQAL
- assay: Fluorescence polarization competition assay, displacement of 5′-6FAM ssDNA probe from RPA70AB
- stated.conditions: FP
endpoint: selectivity for hMcm10 over RPA70AB

test_smiles=Cc1nc(/N=N/c2cc(S(=O)(=O)O)ccc2S(=O)(=O)O)c(COP(=O)(O)O)c(C=O)c1O target_under_test="human RPA70AB (A and B DNA binding domains of RPA70) (Homo sapiens)" result="greater than 50 fold"
test_smiles=O=C(Nc1cc(C(=O)Nc2ccc(S(=O)(=O)O)cc2S(=O)(=O)O)cc(C(=O)Nc2ccc(S(=O)(=O)O)cc2S(=O)(=O)O)c1)Nc1cc(C(=O)Nc2ccc(S(=O)(=O)O)cc2S(=O)(=O)O)cc(C(=O)Nc2ccc(S(=O)(=O)O)cc2S(=O)(=O)O)c1 target_under_test="human RPA70AB (A and B DNA binding domains of RPA70) (Homo sapiens)" result="more than 10 fold"
test_smiles=O=C(Nc1cccc(C(=O)Nc2cc(C(=O)Nc3ccc(S(=O)(=O)O)c4cc(S(=O)(=O)O)cc(S(=O)(=O)O)c34)ccc2F)c1)Nc1cccc(C(=O)Nc2cc(C(=O)Nc3ccc(S(=O)(=O)O)c4cc(S(=O)(=O)O)cc(S(=O)(=O)O)c34)ccc2F)c1 target_under_test="human RPA70AB (A and B DNA binding domains of RPA70) (Homo sapiens)" result="more than 10 fold"
test_smiles=Cc1nc(/N=N/c2ccc(S(=O)(=O)O)cc2S(=O)(=O)O)c(COP(=O)(O)O)c(C=O)c1O target_under_test="human RPA70AB (A and B DNA binding domains of RPA70) (Homo sapiens)" result="greater than 50 fold"
